- test-name: method code SF, from Hansch, C. & Leo, A. (1987). Log P database [Dataset]. Pomona College Medicinal Chemistry Project.
measured-attribute: logP
Numbers only.

1) COC(=O)c1ccc[nH]1 ... 1.17

Count: 4. Required value per item: logP.
1. CCC(C)NC(=O)C(=Cc1ccccc1)OC (stereo not given)
2. N#CC(C#N)=C(c1ccccc1)c1ccccc1
3. NC(=O)NN=CCCc1ccccc1
4. CO[C@@H]1O[C@H](COC(C)=O)[C@@H](OC(C)=O)[C@H](NC(=O)N(CCCl)N=O)[C@H]1OC(C)=O

2.86
3.55
2.32
0.67

Count: 7. Required value per item: logP.
1. CCCCCC(C)O (stereo not given)
2. C/N=C(\NC)NC#N
3. O=[N+]([O-])c1ccc(CCO)cc1
4. COc1ccc2ncccc2c1
5. Oc1ccccc1C(F)(F)F
6. O=S1(=O)NC(C2CCCCC2)=Nc2ccccc21
7. N#CN=[N+]([O-])c1cccc(C#N)c1

2.31
-0.4
1.12
2.2
2.73
2.2
1.15

Count: 6. Required value per item: logP.
1. CNC(=O)Oc1cc(C)c(C)cc1C
2. O=C(O)COc1ccc(Cl)c(Br)c1
3. NC(=O)c1cccc(C(N)=O)c1
4. CCCCC1OC(=O)c2cc(N)ccc21 (stereo not given)
5. CCC(CC)C1=Nc2ccccc2S(=O)(=O)N1
6. CN(Cc1ccc([N+](=O)[O-])cc1)/N=N/c1ccc(C(=O)O)cc1

1: 2.52; 2: 2.75; 3: -0.21; 4: 2.86; 5: 1.88; 6: 4.03

Count: 5. Required value per item: logP.
1. CCOC(=O)OCC
2. CCN(CC)CCNc1ccc(C)c(Cl)c1
3. c1ccc2c(c1)OCO2
4. CCNC(=O)CBr
5. O=[N+]([O-])c1ccc(C=Cc2nccn2Cc2ccncc2)o1

[1.21, 4.14, 2.08, 0.34, 1.67]

Just for reference, the SangsterLogP compilation is where these values come from.
